assay: yeast display, Sf9 membrane polyspecificity reagent, FACS + sequencing; frameworks hold sequencing errors
parameter_measured: polyreactivity (PSR sort gate)

# sequence_input, measurement
records = [
    ("QVQLVESGGGLVQAGGSLRLSCAASGRTFYKNTMGWYRQAPGKERELVATITRRGGTTYYADSVKGRFTISRDKAKNTVYLQMNSLKPEDTAVYYCAKDASTEKYDYWGQGTQVTVSS", "low polyreactivity"),
    ("QVQLVESGGGLDQAGGSLRLSCAASGRTFANAMGWYRQAPGKERELVAGITSGGGRTYYADSVKGRFTMSRDNAKNTVYLQMNSLKPEDTAVYYCNRATPPGRLKSDSWGQGTQVTVSS", "high polyreactivity"),
    ("QVQLVESGGGLVQAGGSLRLSCAASGRIFRYNAMGWYRQAPGKERELVAAISWSGGSTYYADSVKGRFTISRDNAKNTVYLQMNSLKPEDTAVYYCNARYRYSVTGYDYWGQGTQVTVSS", "high polyreactivity"),
    ("QVQLVESGGGLVQAGGSLRLSCAASGFTFANYAMGWYRQAPGKERELVAAITRTAGSTYYADSVKGRFTISRDNAKNTVYLQMNSLKPEDTAVYYCAVEGIYRWYDYSWYYTSTYDYWGQGTQVTVSS", "low polyreactivity"),
    ("QVQLVESGGGLVQAGGSLRLNSAASGIIFPRYAMGWYSQAPGKEWEVVAGFTSSGGTYYADSVKGRFTISRDHAKNTVYLQMNSLIPEDTAVYYCAARQGNLRRGVRWFNYWGQGTQVTVSS", "high polyreactivity"),
    ("QVQHVESGGCLVQAGGSRRLSCAASVSIFIPNAMGWSRQAHGKERELVAAISWSGASTYYADSVKRRFTISRDNAKNTVYLQMISLKPEDTAVYYCAAYYAYRRGYDYWGQGTQVTVSS", "high polyreactivity"),
    ("QVQLVESGGGLVQAGGSLRLSCAASGFIFLRYAMGWYRQAPGKERELVAAISSSGGRTTYADSVKGRFTISRDNAKNTLYLQMNSLKPEDTAVYYCNADLWPGNHDGYWGQGTQVTVSS", "low polyreactivity"),
    ("QVQLVETGGGLVQAGGSLRLSCAASGIIFSKYAMGRYRQAPGKERELVAAITRSGGSTYYADSVKGRFTISRDNAKNTVYLQMNSLKPEDTAVYYCAKRSGTPTNRQRYGYWGQGTQVTVSS", "high polyreactivity"),
    ("QVQLQESGGGLVQAGGSLRLSCAASGTITVLYKMAWFRQEPGKEREFVASINYGTSTYYADSVKGRFTVSRDSAKNTVYLQMNSLKPEDTAVYYCAAAYRWQDVYRYWGQGTQVTVSS", "low polyreactivity"),
    ("QVQLVESGGGLDQAGGSLRLSCAASGRIFYQNAMGLSRQAPGKERELVAAITSSGVSTYYADSVKGRFTISRDNAKNTVYLQMNSLKPEDTAVYYCAAYRVGYGGYSYYYWGQGTQVTVSS", "high polyreactivity"),
    ("QVQLVESGGGLVQAGGSLRCSCAASGRTFGTYAMGWYRQAPGKERELVAAISTRDGSTYYADSVKGRYTISRDTAKNTVYLQMNSLKPEDTAVYYCNAVVRYYDWGYWDYDYWGQGTQVTVSS", "low polyreactivity"),
    ("QVQLVESGGGLVQAGGSLSLSCAASGLILRSYAMGWYRQAPWKERELVAAISGSGGRTYYADSVKGRFTISRDNAKNTVYLLMNSLKPEDTAVYYCAAGWTYRQNGYWGQGTQVTVSS", "high polyreactivity"),
    ("QVQLVESGGGLVQAGGSLRLSCAASGRTFYDYAMGWYRQAPGKERELVAAITYSGGSTFYADSVKGRFTISRDNAKNTVYLQMNSLKPEDTAVYYCAAEVLLLVGAAEYDYWGQGTQVTVSS", "low polyreactivity"),
    ("QVQIVESGGGLVQAGGSLRLSCAASGRIFCGNVMGWYRQAPGKERELVAAISGRGGRTYYAHSVKGRFTISRDNAKNTVYLQMNSLKPEDTAVYYCAASTGEEISGKRYNYWGQGTQVTVSS", "high polyreactivity"),
    ("QVHLVESGGGLVQAGGSLRLSCAASGIIFPWTAMGWYRQAPGKERELVAAITSRGSNTYYADSVKGRFTISRDNAKNTVYLQMNSLKPEDTAVYYCAVDSFYYGKYGYWGQGSQVTVSS", "high polyreactivity"),
    ("QVQLVESGGGLVQAGGSLRLSCAASGTIFGGYGRGWYRQAPGKERELVAAITSGSSTYYADSVKGRFTISRDNAKNTVYLQMNSLKPEDTAVYYCAARPFPHSAYEGDYWGRGTQVTVSS", "low polyreactivity"),
    ("QDQLVESGGGLVQAGGSLRLSCAASGSTFNAYAMGWYRQAPGKERQLVASITKSGGRTYYADSVKRRFTISRDNAKNTVYLQMNRLKPEDSAVYYCAARYVWRSTHHRGSTYDYWGQGTQVTVSS", "high polyreactivity"),
    ("QVQLVESGGGLVQAGGSLRLSCAASGRTFAYYTMGWYRQAPGKERELVAAITSSGGSTYYADSVKGRFTISRDNAKNTVYLQMNSLKPEDTAVYYCNAYGLRWASRLGYDYWGQGTQVTVSS", "high polyreactivity"),
    ("QVQLEESGGGLVQAGGSLRLSCAASGIIFSIYAMGLYRKAPGKERELVAAITYSGGRTYYADSVKGRFTISRDNAKNTVYLQMNSLKPEDTAVYYCAAVVYGEYYWGQGTQVTVSS", "high polyreactivity"),
    ("QVQLVESGGGLVQAGGSLRLSSAASGRIFYGYAMGWYRQAPGKERELVAAISWSGGSTYYADSVKWRFTISRDNAKNTVYLQMNSLKPEDTAVYYCARRDRGGYKYDYWGQGTQVTVSS", "high polyreactivity"),
    ("QVQLVESGGGLVQAGGSLRLSCAASGSTFVPYAMGWYRQAPGKERELVAAITDSGGSTSYADSVKGRFTISRDKAKNSVYLQMNSLKPEDTAVYYCAAQTRAIVQKYPGDDYWGQGTQVTVSS", "low polyreactivity"),
]

Values compiled from the nanobody polyreactivity screen of Harvey et al. (2022).
